Listed next: entries and their corresponding Activity.
# System: Mus musculus
# method-notes: Induction of KC secretion in BALB/c mouse serum at 2 ug, iv after 2 hrs relative to control
# Format: functional

compound	Activity
CCCCCCCCCCCCCCC[C@@H](O)[C@H](CO[C@H]1O[C@H](C(=O)O)[C@H](O)[C@H](O)[C@H]1O)NC(=O)CCCCCCCCCCCCC	7.6
CCCCCCCCCCCCCCCCCCCCCCCCCC(=O)N[C@@H](CO[C@H]1O[C@H](CO)[C@H](O)[C@H](OS(=O)(=O)[O-])[C@H]1O)[C@H](O)[C@H](O)CCCCCCCCCCCCCC.[Na+]	16.4
CCCCCCCCCCCCCC[C@@H](O)[C@@H](O)[C@H](CO[C@H]1O[C@H](CO)[C@H](O)[C@H](O)[C@H]1O)NC(=O)CCCCCCCCCCc1ccccc1	6.9
CCCCCCCCCCCCCCCCCCCCCCCCCC(=O)N[C@@H](CO[C@H]1O[C@H](C(=O)O)[C@H](O)[C@H](O)[C@H]1O)[C@H](O)[C@H](O)CCCCCCCCCCCCCC	16.1
CCCCCCCCCCCCCCCCCCCCCCCCCC(=O)N[C@@H](CO[C@H]1O[C@H](CO)[C@H](O)[C@H](O)[C@H]1O)[C@H](O)[C@H](O)CCCCCCCCCCCCCC [RGI-7000]	30.5
CCCCCCCCCCCCCCCCCCCCCCCCCC(=O)N[C@@H](CO[C@H]1O[C@H](CO)[C@H](O)[C@H](O)[C@H]1O)[C@H](O)[C@H](O)CCc1ccccc1	19.2
CCCCCCCCCCCCCC[C@@H](O)[C@@H](O)[C@H](CO[C@H]1O[C@H](CO)[C@H](O)[C@H](O)[C@H]1O)NC(=O)CCCCCCCc1ccccc1	11
CCCCCCCCCCCCCC[C@@H](O)[C@@H](O)[C@H](CO[C@H]1O[C@H](CO)[C@H](O)[C@H](O)[C@H]1O)NC(=O)CCCCCCCCCCCCC	3.9
